System: Plasmodium berghei
experiment notes: Antimalarial activity against drug-sensitive trophozoite stage of Plasmodium berghei infected in mouse assessed as increase in mean survival time up to 640 mg/kg, sc administered 72 hrs post infection
Assay type: functional, organism-based
Set-up: dose 640 mg/kg
Calls of active or inactive are those of the source. The rule behind the calls is not given here.
experimental endpoint: Activity

Completed entries (count: 5):
INSERT INTO measurements (smiles, experimental_system, reading) VALUES
  ('CC(C)N(Cc1cnc2nc(N)nc(N)c2n1)c1ccc(Cl)cc1.CN(C)C=O', 'Plasmodium berghei', 'inactive'),
  ('CC(C)N(Cc1c[n+]([O-])c2nc(N)nc(N)c2n1)c1ccc(Cl)c(Cl)c1', 'Plasmodium berghei', 'inactive'),
  ('CN(Cc1c[n+]([O-])c2nc(N)nc(N)c2n1)c1ccc(Cl)c(Cl)c1', 'Plasmodium berghei', 'inactive'),
  ('CCCN(Cc1c[n+]([O-])c2nc(N)nc(N)c2n1)c1ccc(Cl)c(Cl)c1', 'Plasmodium berghei', 'inactive'),
  ('CCOC(=O)c1ccc(N(C)Cc2cnc3nc(N)nc(N)c3n2)cc1', 'Plasmodium berghei', 'inactive');

I need Activity for every entry listed below, if you could help.
1. CCN(Cc1cnc2nc(N)nc(N)c2n1)c1ccc(OC)cc1
2. CN(Cc1cnc2nc(N)nc(N)c2n1)c1ccc(Cl)cc1
3. CN(C)C=O.Nc1nc(N)c2nc(CNc3ccc(Cl)c(Cl)c3)cnc2n1
4. CN(Cc1cnc2nc(N)nc(N)c2n1)c1ccc(Cl)c(Cl)c1
5. Nc1nc(N)c2nc(CN(C=O)c3ccc(Cl)c(Cl)c3)cnc2n1

1: inactive; 2: inactive; 3: inactive; 4: inactive; 5: inactive

---

Exercise: for every item that follows, state its recorded MIC.
System: Escherichia coli
experiment notes: Antibacterial activity against Escherichia coli Vogel assessed as growth inhibition by gradient plate test
Assay type: functional

INSERT INTO results (smiles, experimental_system, reading) VALUES
  ('CCCN(Cc1cnc2nc(N)nc(N)c2n1)c1ccc(Cl)c(Cl)c1', 'Escherichia coli', '> 25 µg/mL'),
  ('CCN(Cc1cnc2nc(N)nc(N)c2n1)c1ccc(Cl)cc1', 'Escherichia coli', '> 25 µg/mL'),
  ('CN(Cc1cnc2nc(N)nc(N)c2n1)c1cccc2ccccc12', 'Escherichia coli', '> 25 µg/mL'),
  ('CN(C)C=O.Nc1nc(N)c2nc(CNc3ccc(Cl)c(Cl)c3)cnc2n1', 'Escherichia coli', '> 25 µg/mL'),
  ('CN(Cc1cnc2nc(N)nc(N)c2n1)c1ccc(Cl)c(Cl)c1', 'Escherichia coli', '> 25 µg/mL'),
  ('Nc1nc(N)c2nc(CN(C=O)c3ccc(Cl)c(Cl)c3)cnc2n1', 'Escherichia coli', '> 25 µg/mL'),
  ('CC(C)N(Cc1cnc2nc(N)nc(N)c2n1)c1ccc(Cl)c(Cl)c1', 'Escherichia coli', '> 25 µg/mL'),
  ('CN(Cc1cnc2nc(N)nc(N)c2n1)c1ccc(Cl)cc1', 'Escherichia coli', '> 25 µg/mL');

I need MIC for every entry listed below, if you could help.
1. COc1cc(N(C)Cc2cnc3nc(N)nc(N)c3n2)cc(OC)c1OC
2. CC(C)N(Cc1cnc2nc(N)nc(N)c2n1)c1ccc(Cl)cc1.CN(C)C=O
3. CCN(Cc1cnc2nc(N)nc(N)c2n1)c1ccc(OC)cc1

> 25 µg/mL
> 25 µg/mL
> 25 µg/mL
